- target-desc: KDM4A-F185A (Homo sapiens, UniProt O75164, F185A)
- Construct: human KDM4A-jmjC domain (catalytic domain of KDM4A); 6xHis (N); host or cells: E. coli BL21 (DE3)
- Sequence (O75164 142-308 F185A limits assumed): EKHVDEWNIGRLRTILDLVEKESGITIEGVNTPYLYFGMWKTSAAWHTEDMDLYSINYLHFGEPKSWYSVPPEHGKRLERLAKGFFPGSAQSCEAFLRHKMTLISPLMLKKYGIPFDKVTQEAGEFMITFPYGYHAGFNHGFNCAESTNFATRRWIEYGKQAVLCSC
- measurement-protocol: Coupled fluorescence end-point assay for IC50
- Assay type: biochemical
- stated-conditions: time-dependent inhibition of F185A, 5 hour (text: monitored over more than 5 h)
measurement-kind: IC50 (nM)
Number only, in nM; omit the unit.

**Query** Lab note: need IC50 with KDM4A-F185A (Homo sapiens, UniProt O75164, F185A) for entry CC(C)CC(NC(=O)C(=O)O)C(=O)O (stereo not shown) [compound 6, N-oxalyl leucine] , please look it up.
**Result** 2200

====

- target-desc: KDM4A-F185A (Homo sapiens, UniProt O75164, F185A)
- Construct: human KDM4A-jmjC domain (catalytic domain of KDM4A); 6xHis (N); host or cells: E. coli BL21 (DE3)
- Sequence (O75164 142-308 F185A limits assumed): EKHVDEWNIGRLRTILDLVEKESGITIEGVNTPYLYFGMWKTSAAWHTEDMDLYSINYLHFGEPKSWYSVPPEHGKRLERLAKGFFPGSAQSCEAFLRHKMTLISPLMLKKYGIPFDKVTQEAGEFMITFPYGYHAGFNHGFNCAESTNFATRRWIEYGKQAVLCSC
- measurement-protocol: MALDI-MS end-point demethylase assay on H3K9me3 peptide
- Format: biochemical
Catalogue of compounds with associated IC50
Number only, in µM; omit the unit.

{"compound": "O=C(O)C(=O)N[C@@H](CC1CCCCC1)C(=O)O [compound 10, cyclohexyl NOG]", "observed": 4.7}

**Query** Return reported IC50; argument: O=C(O)C(=O)N[C@@H](Cc1ccccc1)C(=O)O [compound 9, phenylalanine NOG]
**Result** 28.7

====

- target-desc: KDM4A-F185A (Homo sapiens, UniProt O75164, F185A)
- Construct: human KDM4A-jmjC domain (catalytic domain of KDM4A); 6xHis (N); host or cells: E. coli BL21 (DE3)
- Sequence (O75164 142-308 F185A limits assumed): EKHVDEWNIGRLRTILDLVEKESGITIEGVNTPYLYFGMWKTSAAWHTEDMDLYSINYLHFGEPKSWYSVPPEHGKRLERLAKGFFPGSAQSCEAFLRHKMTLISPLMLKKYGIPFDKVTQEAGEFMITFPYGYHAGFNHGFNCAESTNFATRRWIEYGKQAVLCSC
- measurement-protocol: Coupled fluorescence end-point assay for IC50
- Assay type: biochemical
- stated-conditions: time-dependent inhibition of F185A, 2 hour
measurement-kind: pIC50
# pIC50 = -log10(concentration in molar units)

**Query** Return reported pIC50; argument: CC(C)CC(NC(=O)C(=O)O)C(=O)O (stereo not shown)
**Result** 5.92
